Assay: Solubility screening of Formula (I) in crystallization solvents at RT and 50° C. (TABLE 3)
Assay type: physicochemical
Conditions: NMP, organic solvent or mixture, thermodynamic from solid, NMP; RT; read-out: Solubility Range
Measured Endpoint: solubility

# input Field request: solubility | item: CC[C@H](C)C(=O)N1CCC(NC(=O)Nc2ccc(OC(F)(F)F)c(F)c2)CC1 [Formula (I)]
# output ≥ 55.2 mg/mL

----------
Assay: Solubility screening of Formula (I) in crystallization solvents at RT and 50° C. (TABLE 3)
Type: physicochemical
Details: 2-methyltetrahydrofuran (2-MeTHF), organic solvent or mixture, thermodynamic from solid, 2-MeTHF; RT; read-out: Nominal Solubility
Measured Endpoint: solubility (mg/mL)
Answers are plain numbers, in mg/mL.

# input Field request: solubility | item: `CC[C@H](C)C(=O)N1CCC(NC(=O)Nc2ccc(OC(F)(F)F)c(F)c2)CC1`
# output 25.2

Origin of measurements: patent US20260166021A1
